Target: T1, human ROR1 (full-length, on the cell surface) (human, UniProt Q01973 30-937)
T1 construct: whole, on cells; the tumour cell lines carry their own ROR1; also called Ba/F3-ROR1 cells; Jeko-1
T1 sequence (Q01973 30-937): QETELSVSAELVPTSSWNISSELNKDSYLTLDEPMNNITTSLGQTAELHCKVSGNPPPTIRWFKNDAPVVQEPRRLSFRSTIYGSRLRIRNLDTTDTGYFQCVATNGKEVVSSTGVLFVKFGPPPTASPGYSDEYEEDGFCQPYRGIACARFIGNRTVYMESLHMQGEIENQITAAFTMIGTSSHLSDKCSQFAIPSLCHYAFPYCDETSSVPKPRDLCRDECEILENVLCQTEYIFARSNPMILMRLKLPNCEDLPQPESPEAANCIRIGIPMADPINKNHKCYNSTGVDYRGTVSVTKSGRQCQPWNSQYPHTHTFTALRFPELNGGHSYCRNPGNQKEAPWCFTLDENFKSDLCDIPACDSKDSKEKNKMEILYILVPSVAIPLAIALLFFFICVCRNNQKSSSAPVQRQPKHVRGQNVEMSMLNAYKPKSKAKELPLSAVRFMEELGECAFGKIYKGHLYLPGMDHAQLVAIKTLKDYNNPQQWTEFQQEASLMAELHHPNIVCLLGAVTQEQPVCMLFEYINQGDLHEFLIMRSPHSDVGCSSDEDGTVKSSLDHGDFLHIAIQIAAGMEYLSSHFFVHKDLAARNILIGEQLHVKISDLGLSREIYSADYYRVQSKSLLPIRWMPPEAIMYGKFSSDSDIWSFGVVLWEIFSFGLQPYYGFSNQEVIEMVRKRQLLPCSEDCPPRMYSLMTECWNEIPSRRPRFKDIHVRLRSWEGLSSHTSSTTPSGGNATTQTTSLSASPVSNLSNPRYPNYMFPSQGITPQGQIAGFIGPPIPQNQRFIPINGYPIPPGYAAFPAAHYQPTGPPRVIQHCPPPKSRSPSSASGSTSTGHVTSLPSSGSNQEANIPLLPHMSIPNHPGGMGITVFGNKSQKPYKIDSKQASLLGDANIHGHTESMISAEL
Test: flow cytometry, A549 cells
pEC50: −log10 of the molar value.
Measurement Label: pEC50

1) 38F8-Hu26 (antibody, human IgG1, kappa, V domains shown, humanized, human IgG1 / kappa) VH: EVQLVESGGGLVQPGGSLRLSCAASGFTFSNYAMSWVRQAPGKGLEWVASISSGGPTYYPDSVKGRFTVSRDNSKNTLYLQMNSLRAEDTAVYYCARGYRYDVNWYFDVWGAGTMVTVSS VL: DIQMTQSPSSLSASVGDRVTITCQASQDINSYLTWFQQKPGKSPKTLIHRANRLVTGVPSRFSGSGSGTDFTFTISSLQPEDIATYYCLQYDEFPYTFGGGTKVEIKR; 9.54
2) 19F6-Hu34 (antibody, human IgG1, kappa, V domains shown, humanized, human IgG1 / kappa) VH: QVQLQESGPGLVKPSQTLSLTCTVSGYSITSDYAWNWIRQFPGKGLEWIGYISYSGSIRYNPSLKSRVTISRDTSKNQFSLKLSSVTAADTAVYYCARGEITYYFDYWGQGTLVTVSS VL: DIQMTQSPSSLSASVGDRVTITCQTSTDIDDDLNWYQQKPGKPPKLLISEGNTLETGVPSRFSGSGSGTDFTFTISSLQPEDIADYYCLQSNDLPLTFGAGTKLEIKR; 9.89
